# TEST DESCRIPTION: NCI Yeast Anticancer Drug Screen. Data for the mec2-1 strain (AID 157)
# ASSAY CONDITIONS: S. cerevisiae mec2-1 strain, at 50.0 µM, stronger effect = higher value
This is part of a sample that, as a whole, favours compounds with a hit. Of some 79,000 tested, about 15% had one in any assay.
Binary call on growth inhibition: Satisfied from -10% upward, Not satisfied beneath that.

[[record]]
compound = "COC(=O)c1cc(-c2ccc3ccccc3c2)[nH]c(=O)c1C#N"
answer_label = "Satisfied"

[[record]]
compound = "O=C(CSc1nnc(-c2ccccc2NC(=O)C(F)(F)F)c(=O)[nH]1)NC(=O)Nc1ccccc1"
answer_label = "Not satisfied"

[[record]]
compound = "COC(=O)CC(c1ccccc1)N1CCOCC1 (configuration not stated)"
answer_label = "Satisfied"

[[record]]
compound = "CN(C)c1ccc(C=C2/C(=N\\O)c3ccccc3/C2=N/O)cc1"
answer_label = "Satisfied"

[[record]]
compound = "CC1(O)CCC(C(C)(C)C)CC1 (configuration not stated)"
answer_label = "Satisfied"

[[record]]
compound = "CC(=O)/C(C)=N/Nc1ccccc1"
answer_label = "Satisfied"

[[record]]
compound = "CN(C)P(=O)(Nc1ccc(Cl)cc1)Nc1ccc(Cl)cc1"
answer_label = "Satisfied"

[[record]]
compound = "CC(C)(CCC(=O)O)C(=O)O"
answer_label = "Not satisfied"

[[record]]
compound = "CCn1c(S)c(N=NC(=S)c2ccc3ccccc3n2)c2ccccc21"
answer_label = "Satisfied"

[[record]]
compound = "CC1(C)CNC(C)(C)CN1"
answer_label = "Not satisfied"

[[record]]
compound = "CN(C)CC1CCC/C(=C\\c2ccccc2)C1=O (configuration not stated)"
answer_label = "Satisfied"

[[record]]
compound = "Nc1cc(C(=O)O)c2ccccc2c1"
answer_label = "Satisfied"

[[record]]
compound = "O=C1OC(c2ccccc2)=N/C1=C\\c1cccc(F)c1"
answer_label = "Not satisfied"

[[record]]
compound = "CC1(C(=O)N2c3ccccc3C=CC2C#N)CC2C=CC1C2 (configuration not stated)"
answer_label = "Satisfied"

[[record]]
compound = "Brc1ccc(C=C2c3ccccc3-c3ccccc32)cc1"
answer_label = "Satisfied"

[[record]]
compound = "CCCCN=C1Nc2nc(=NCCCC)nc3c(Br)cc(Br)c(n23)N1"
answer_label = "Satisfied"

[[record]]
compound = "Cc1nn(C(=O)c2ccncc2)c2c1C(c1cccc([N+](=O)[O-])c1)SC(N)=N2 (configuration not stated)"
answer_label = "Not satisfied"

[[record]]
compound = "CN1CCC(C)(c2ccccc2)C(=O)C1 (configuration not stated)"
answer_label = "Satisfied"

[[record]]
compound = "O=C(O)CCn1cnc2c(=S)nc[nH]c21"
answer_label = "Not satisfied"

[[record]]
compound = "CCCCCCCCCCCCCCCCSCCOC(=O)C1C2CCC(O2)C1C(=O)O (configuration not stated)"
answer_label = "Not satisfied"

[[record]]
compound = "CC(C)(C)S(=O)(=O)CCCCl"
answer_label = "Not satisfied"

[[record]]
compound = "CSc1nc2c(nc(N)n2C2OC(CO)C(O)C(O)C2O)c(=O)[nH]1 (configuration not stated)"
answer_label = "Satisfied"

[[record]]
compound = "COC(=O)C1=CO[C@@H](C)[C@@H]2Cn3ccc4c5ccccc5nc-4c3C[C@H]12"
answer_label = "Not satisfied"

[[record]]
compound = "N#CCN1C(=O)c2ccccc2C1=O"
answer_label = "Satisfied"

[[record]]
compound = "Cc1ccc(-n2cnc3c(Cl)ncnc32)cc1[N+](=O)[O-]"
answer_label = "Satisfied"

[[record]]
compound = "O=[N+]([O-])c1ccc(CCO)cc1"
answer_label = "Not satisfied"

[[record]]
compound = "CC(C)(C)c1cc(-c2c3nc(c(-c4cc(C(C)(C)C)cc(C(C)(C)C)c4)c4ccc([nH]4)c(-c4cc(C(C)(C)C)cc(C(C)(C)C)c4)c4nc(c(-c5cc(C(C)(C)C)cc(C(C)(C)C)c5)c5ccc2[nH]5)C=C4)C=C3)cc(C(C)(C)C)c1"
answer_label = "Satisfied"

[[record]]
compound = "O=C(Nc1ccc(Br)cc1)c1cc(Cl)cc(Cl)c1Br"
answer_label = "Satisfied"

[[record]]
compound = "CCCN(CCN(CC)CC)C(=O)N(CC)CC"
answer_label = "Satisfied"

[[record]]
compound = "Nc1cc(=S)nc(N)[nH]1"
answer_label = "Satisfied"

[[record]]
compound = "CCCCCCC(=O)/C=C/c1ccc(OC)cc1"
answer_label = "Satisfied"

[[record]]
compound = "Nc1nc2c(ncn2C2OC(COC(=O)c3ccccc3)C(OC(=O)c3ccccc3)C2OC(=O)c2ccccc2)c(=O)[nH]1 (configuration not stated)"
answer_label = "Not satisfied"

[[record]]
compound = "CC(=O)OC12c3ccccc3C(c3ccccc31)C1C(=O)N(c3ccccc3O)C(=O)C12 (configuration not stated)"
answer_label = "Not satisfied"

[[record]]
compound = "Cc1cc2ncn(C3CCCO3)c2cc1C (configuration not stated)"
answer_label = "Satisfied"

[[record]]
compound = "CC(=O)OCC(=O)C1(O)C(C)CC2C3CCC4CC(=O)CCC4(C)C3=CCC21C (configuration not stated)"
answer_label = "Not satisfied"

[[record]]
compound = "Cc1cccc(CC(N)C(=O)O)c1 (configuration not stated)"
answer_label = "Satisfied"

[[record]]
compound = "CCOC(=O)C[n+]1ccc(C(=O)OCC)cc1"
answer_label = "Not satisfied"

[[record]]
compound = "CSc1c(C)n([O-])c2ccccc2[n+]1=O"
answer_label = "Satisfied"

[[record]]
compound = "CCCCOc1ccc(Nc2c(C(=O)O)cnc3cc4c(cc23)OCO4)cc1"
answer_label = "Satisfied"

[[record]]
compound = "CCOC(NC(=O)CC)(C(F)(F)F)C(F)(F)F"
answer_label = "Not satisfied"

[[record]]
compound = "CCn1c2ccccc2c2nnc(NCCCO)nc21"
answer_label = "Not satisfied"

[[record]]
compound = "CC(=O)OCC1OC(N2C(c3ccccc3)=CC(c3cccs3)C(C#N)=C2S)C(OC(C)=O)C(OC(C)=O)C1OC(C)=O (configuration not stated)"
answer_label = "Satisfied"

[[record]]
compound = "Nc1ccc(S(=O)(=O)O)cc1"
answer_label = "Satisfied"

[[record]]
compound = "CC(=O)NC(Cc1ccccc1)C(=O)Nc1ccc(C)cc1 (configuration not stated)"
answer_label = "Satisfied"

[[record]]
compound = "CC1(C)CC2=C(Sc3ccccc3N2)C(=O)C1C(=O)C(=O)Nc1cccc([N+](=O)[O-])c1 (configuration not stated)"
answer_label = "Not satisfied"

